- TARGET_OR_SYSTEM: human TLR8 (wild type sequence) (Homo sapiens)
- Construct: expressed in transfected cells; host or cells: HEK293
- Sequence (Q9NR97 27-1041): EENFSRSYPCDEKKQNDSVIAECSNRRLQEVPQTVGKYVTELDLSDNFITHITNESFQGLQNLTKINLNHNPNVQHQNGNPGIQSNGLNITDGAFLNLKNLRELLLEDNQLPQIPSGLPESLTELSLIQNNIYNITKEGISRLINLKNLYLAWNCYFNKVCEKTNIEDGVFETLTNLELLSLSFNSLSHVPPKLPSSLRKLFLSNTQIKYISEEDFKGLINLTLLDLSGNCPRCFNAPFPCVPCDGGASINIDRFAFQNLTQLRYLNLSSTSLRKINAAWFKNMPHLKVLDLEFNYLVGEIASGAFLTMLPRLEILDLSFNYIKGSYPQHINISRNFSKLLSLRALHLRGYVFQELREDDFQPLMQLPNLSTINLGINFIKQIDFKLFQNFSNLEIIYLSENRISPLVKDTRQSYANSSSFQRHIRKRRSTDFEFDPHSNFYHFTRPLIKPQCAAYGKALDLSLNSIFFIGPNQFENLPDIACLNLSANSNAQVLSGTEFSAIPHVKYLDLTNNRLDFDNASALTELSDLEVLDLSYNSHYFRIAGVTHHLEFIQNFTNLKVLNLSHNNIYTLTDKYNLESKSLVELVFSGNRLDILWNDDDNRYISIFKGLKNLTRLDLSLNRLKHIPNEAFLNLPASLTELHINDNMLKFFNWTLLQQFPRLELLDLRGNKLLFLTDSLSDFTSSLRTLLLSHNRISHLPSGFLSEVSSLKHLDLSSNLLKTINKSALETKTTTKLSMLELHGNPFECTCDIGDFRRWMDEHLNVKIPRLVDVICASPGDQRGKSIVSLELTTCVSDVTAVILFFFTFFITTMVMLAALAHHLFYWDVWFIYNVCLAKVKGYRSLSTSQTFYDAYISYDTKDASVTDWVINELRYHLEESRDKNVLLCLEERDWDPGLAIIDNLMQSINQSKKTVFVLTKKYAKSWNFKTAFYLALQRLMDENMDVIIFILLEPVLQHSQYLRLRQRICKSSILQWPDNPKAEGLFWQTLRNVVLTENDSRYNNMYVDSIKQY
- MEASUREMENT_DESCRIPTION: TLR8 cellular NFκB-luc reporter assay, wild type TLR8
- Format: cell-based
- Design: unit not given here
- CONDITION: lowest effective concentration, wild type TLR8 (compounds 74 onward)
API: label(entry) gives True if the entry's TLR 8 wt LEC is strictly smaller than 3; on equality or larger values it gives False.

### Prompt Does CCCC[C@H](CCO)Nc1nc(N)ncc1OCc1ccccc1 have TLR 8 wt LEC strictly under 3?
### Response True

### Prompt What about CCCCNc1nc(N)ncc1OCc1cc(OC2CCOC2)c(OC)cn1 (stereo not drawn) ?
### Response True

### Prompt Please answer likewise for CCCCNc1nc(N)ncc1OCCOc1cccc(OC)c1OC
### Response False

====

- TARGET_OR_SYSTEM: human TLR8 (wild type sequence) (Homo sapiens)
- Construct: expressed in transfected cells; host or cells: HEK293
- Sequence (Q9NR97 27-1041): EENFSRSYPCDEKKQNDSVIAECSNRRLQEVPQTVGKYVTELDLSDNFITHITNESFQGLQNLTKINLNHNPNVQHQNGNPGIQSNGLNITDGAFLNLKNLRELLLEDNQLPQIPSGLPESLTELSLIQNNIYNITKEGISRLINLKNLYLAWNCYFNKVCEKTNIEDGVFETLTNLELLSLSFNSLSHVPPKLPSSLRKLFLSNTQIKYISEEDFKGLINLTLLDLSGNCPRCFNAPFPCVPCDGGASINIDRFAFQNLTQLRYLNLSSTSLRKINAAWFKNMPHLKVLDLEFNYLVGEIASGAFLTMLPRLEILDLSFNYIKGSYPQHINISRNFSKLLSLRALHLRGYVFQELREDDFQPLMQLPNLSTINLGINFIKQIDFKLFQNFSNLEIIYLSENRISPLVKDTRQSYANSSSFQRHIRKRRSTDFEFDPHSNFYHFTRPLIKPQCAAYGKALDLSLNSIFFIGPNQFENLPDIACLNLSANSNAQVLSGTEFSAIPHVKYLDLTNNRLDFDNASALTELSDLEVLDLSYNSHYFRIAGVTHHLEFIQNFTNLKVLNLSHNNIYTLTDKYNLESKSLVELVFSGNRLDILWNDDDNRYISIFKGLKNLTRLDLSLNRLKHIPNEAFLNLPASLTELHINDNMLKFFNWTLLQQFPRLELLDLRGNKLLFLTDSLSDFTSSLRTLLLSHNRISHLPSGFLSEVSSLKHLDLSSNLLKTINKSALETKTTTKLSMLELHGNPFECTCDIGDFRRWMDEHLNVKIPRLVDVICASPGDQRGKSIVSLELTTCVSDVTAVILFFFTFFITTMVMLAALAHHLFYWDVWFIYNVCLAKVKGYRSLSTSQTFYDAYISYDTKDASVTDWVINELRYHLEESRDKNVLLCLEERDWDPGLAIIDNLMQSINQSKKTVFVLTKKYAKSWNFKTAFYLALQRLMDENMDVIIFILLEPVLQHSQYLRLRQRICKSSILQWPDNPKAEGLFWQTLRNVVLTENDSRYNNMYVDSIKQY
- MEASUREMENT_DESCRIPTION: TLR8 cellular NFκB-luc reporter assay, wild type TLR8
- Format: cell-based
- Parameters: unit not given here
- CONDITION: lowest effective concentration, wild type TLR8 (compounds 74 onward)
TEST_READOUT: TLR 8 wt LEC
# print the numeric value only

Previously resolved entries follow.
# MOLECULE, TLR 8 wt LEC
measured = [
    ("CCC[C@@H](CCO)Nc1nc(N)ncc1OCCCc1ccccc1", 1.800),
    ("CCCCNc1nc(N)ncc1OCc1ccc(C(F)(F)F)nc1", 3.020),
    ("CCCC(COC)Nc1nc(N)ncc1OC (stereo not drawn)", 5.940),
    ("CCCCNc1nc(N)ncc1OCCCc1cc(OC)c(OC)cc1OC", 3.480),
    ("CCCCNc1nc(N)ncc1OCCOc1cc(OC)c(OC)c(OC)c1", 3.090),
]

### Prompt # query: TLR 8 wt LEC of entry CCC[C@H](CCO)Nc1nc(N)ncc1OCc1ccccc1
### Response 4.330

### Prompt Okay, and CCCCNc1nc(N)ncc1OCC1CCCO1 (stereo not drawn) ?
### Response 6.160

### Prompt Next: CCCCNc1nc(N)ncc1OCCOc1ccc(C(F)(F)F)cc1
### Response 1.970

====

- TARGET_OR_SYSTEM: human TLR8 (wild type sequence) (Homo sapiens, UniProt Q9NR97)
- Construct: expressed in transfected cells; host or cells: HEK293
- Sequence (Q9NR97 27-1041): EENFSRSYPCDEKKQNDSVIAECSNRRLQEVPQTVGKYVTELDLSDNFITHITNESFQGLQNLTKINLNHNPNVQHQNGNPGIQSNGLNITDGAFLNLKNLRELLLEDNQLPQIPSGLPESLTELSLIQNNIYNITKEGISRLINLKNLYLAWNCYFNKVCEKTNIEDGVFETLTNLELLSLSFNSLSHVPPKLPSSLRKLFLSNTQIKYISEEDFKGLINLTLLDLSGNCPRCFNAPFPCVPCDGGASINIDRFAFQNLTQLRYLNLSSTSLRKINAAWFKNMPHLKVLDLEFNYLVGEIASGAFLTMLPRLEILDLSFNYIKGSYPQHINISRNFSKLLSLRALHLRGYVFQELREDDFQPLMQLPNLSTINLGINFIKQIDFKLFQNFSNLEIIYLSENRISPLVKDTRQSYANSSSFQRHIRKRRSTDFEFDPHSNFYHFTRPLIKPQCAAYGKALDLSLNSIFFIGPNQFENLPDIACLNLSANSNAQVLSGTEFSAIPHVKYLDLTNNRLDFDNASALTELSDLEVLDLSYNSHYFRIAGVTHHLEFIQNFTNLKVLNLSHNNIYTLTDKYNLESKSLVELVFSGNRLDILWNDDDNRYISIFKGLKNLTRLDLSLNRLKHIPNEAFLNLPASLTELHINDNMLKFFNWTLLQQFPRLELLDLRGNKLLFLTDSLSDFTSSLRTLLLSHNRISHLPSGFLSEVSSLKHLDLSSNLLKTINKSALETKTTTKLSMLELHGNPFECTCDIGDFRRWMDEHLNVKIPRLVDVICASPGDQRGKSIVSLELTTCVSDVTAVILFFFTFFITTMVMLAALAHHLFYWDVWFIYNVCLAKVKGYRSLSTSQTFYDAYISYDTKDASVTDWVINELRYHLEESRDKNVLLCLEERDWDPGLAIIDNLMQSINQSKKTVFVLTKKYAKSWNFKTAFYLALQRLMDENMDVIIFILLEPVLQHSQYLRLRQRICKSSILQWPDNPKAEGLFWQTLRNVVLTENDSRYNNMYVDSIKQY
- MEASUREMENT_DESCRIPTION: TLR8 cellular NFκB-luc reporter assay, wild type TLR8
- Format: cell-based
- Set-up: unit not given here
- CONDITION: lowest effective concentration, wild type TLR8 (compounds 74 onward)
TEST_READOUT: TLR 8 wt LEC
Give a plain numeric answer without units written out.

# MOLECULE, READOUT_NUMBER
data = [
    ("CCCCNc1nc(N)ncc1OCCCc1cc(OC)c(OC)c(OC)c1 [Compound 160]", 2.710),
    ("CCCC[C@@H](CO)Nc1nc(N)ncc1OCCCc1ccccc1 [Compound 154]", 2.960),
    ("CCCC[C@@H](CCO)Nc1nc(N)ncc1OCCCc1ccccc1 [Compound 113]", 2.240),
]

### Prompt Reported TLR 8 wt LEC, molecule CCCC[C@@H](CO)Nc1nc(N)ncc1OCc1cccc(C(N)=O)n1 [Compound 80] : ____
### Response 0.041

### Prompt Queued: CCCCNc1nc(N)ncc1OCCOc1cc(C(C)C)nc2cc(OC)ccc12 [Compound 142]
### Response 2.370
